Hello, the source for this data is PubChem BioAssay AID2060601, in case you need it.

- Test system: 874868-142-R-J2-PDC complex spheroids, growth % test/control
- PROTOCOL_DESCRIPTION: Anticancer human tumor 874868-142-R-J2-PDC patient-derived head and neck squamous carcinoma cell line growth inhibition [CLK]
- TEST_CONTEXT: second compound 0.316 µM; first compound 1 µM; stronger effect = lower value
Quick rule for you: viability, T/C under 10% gets Yes, anything else gets No.

INSERT INTO results (compound, assigned_category) VALUES
  ('COc1ccc([C@@H](O)c2cc(-c3ncnc4cc(N5CCOCC5)ccc34)c(F)cc2Cl)nn1 + CN1CCN(c2cc(C(=O)Nc3cc4cc(-c5cnn(C)c5)ccc4cn3)ccn2)CC1', 'Yes'),
  ('Nc1ccccc1NC(=O)c1ccc(CNC(=O)OCc2cccnc2)cc1 + CN1CCN(c2cc(C(=O)Nc3cc4cc(-c5cnn(C)c5)ccc4cn3)ccn2)CC1', 'No'),
  ('CCN1CCN(Cc2ccc(Nc3ncc(F)c(-c4cc(F)c5nc(C)n(C(C)C)c5c4)n3)nc2)CC1 + CNC(=O)c1ccc(Nc2nc(OC3CCCC3)c3c(-c4ccc5nc(C)oc5c4)c[nH]c3n2)c(OC)c1', 'No'),
  ('Nc1ccn(C2OC(CO)C(O)C2(F)F)c(=O)n1 (stereo not given) + CNC(=O)c1ccc(Nc2nc(OC3CCCC3)c3c(-c4ccc5nc(C)oc5c4)c[nH]c3n2)c(OC)c1', 'No'),
  ('CCCS(=O)(=O)Nc1ccc(F)c(C(=O)c2c[nH]c3ncc(-c4ccc(Cl)cc4)cc23)c1F + CN1CCN(c2cc(C(=O)Nc3cc4cc(-c5cnn(C)c5)ccc4cn3)ccn2)CC1', 'No');

###

- Tested on: 874868-142-R-J2-PDC complex spheroids, growth % test/control
- PROTOCOL_DESCRIPTION: Anticancer human tumor 874868-142-R-J2-PDC cell line growth inhibition [CLK]; active = viability on the fitted dose curve at most 10% of control; inactive = the rest
- TEST_CONTEXT: second compound 0.1 µM; first compound 10 µM
Labels: active, inactive

INSERT INTO assay_data (compound, assigned_category) VALUES
  ('C=CC(=O)N1CCN(c2nc(=O)n(-c3c(C)ccnc3C(C)C)c3nc(-c4c(O)cccc4F)c(F)cc23)C(C)C1 (stereo not given) + CNC(=O)c1ccc(Nc2nc(OC3CCCC3)c3c(-c4ccc5nc(C)oc5c4)c[nH]c3n2)c(OC)c1', 'inactive'),
  ('CC(=O)O[C@H]1C(=O)[C@@]2(C)[C@H]([C@H](OC(=O)c3ccccc3)[C@]3(O)C[C@H](OC(=O)[C@H](O)[C@@H](NC(=O)c4ccccc4)c4ccccc4)C(C)=C1C3(C)C)[C@]1(OC(C)=O)CO[C@@H]1C[C@@H]2O + CN1CCN(c2cc(C(=O)Nc3cc4cc(-c5cnn(C)c5)ccc4cn3)ccn2)CC1', 'inactive'),
  ('COc1cccc2c1C(=O)c1c(O)c3c(c(O)c1C2=O)CC(O)(C(=O)CO)CC3OC1CC(N)C(O)C(C)O1 (stereo not given) + CNC(=O)c1ccc(Nc2nc(OC3CCCC3)c3c(-c4ccc5nc(C)oc5c4)c[nH]c3n2)c(OC)c1', 'active'),
  ('CCCS(=O)(=O)Nc1ccc(F)c(C(=O)c2c[nH]c3ncc(-c4ccc(Cl)cc4)cc23)c1F + CNC(=O)c1ccc(Nc2nc(OC3CCCC3)c3c(-c4ccc5nc(C)oc5c4)c[nH]c3n2)c(OC)c1', 'inactive'),
  ('CC1COCCN1c1cc(C2(S(C)(=N)=O)CC2)nc(-c2ccnc3[nH]ccc23)n1 (stereo not given) + CN1CCN(c2cc(C(=O)Nc3cc4cc(-c5cnn(C)c5)ccc4cn3)ccn2)CC1', 'inactive');

###

- System: 874868-142-R-J2-PDC complex spheroids, growth % test/control
- PROTOCOL_DESCRIPTION: Anticancer human tumor 874868-142-R-J2-PDC cell line growth inhibition [CLK];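 further: spheroids exposed to the compounds for 7 days; 100% = DMSO vehicle control viability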
- TEST_CONTEXT: second compound 0.1 µM; first compound 1 µM; stronger effect = lower value
- Source text: A high-throughput screen of multi-cell type tumor spheroids was designed to identify active combinations of […] and targeted small molecules. Complex spheroids include a stromal component modeled by human endothelial cells (HUVEC) and fibroblasts modeled by human mesenchymal stem cells (MSCs). […] Compounds. […] If the clinical Cmax for an agent had not been determined, the highest concentration tested was 10 microM. […]
Entries and their viability, T/C values follow.
REPORTED_METRIC: viability, T/C (%)

INSERT INTO assay_data (compound, measured_value) VALUES
  ('CC1(C)CCC(CN2CCN(c3ccc(C(=O)NS(=O)(=O)c4ccc(NCC5CCOCC5)c([N+](=O)[O-])c4)c(Oc4cnc5[nH]ccc5c4)c3)CC2)=C(c2ccc(Cl)cc2)C1 + CN1CCN(c2cc(C(=O)Nc3cc4cc(-c5cnn(C)c5)ccc4cn3)ccn2)CC1', 75.9),
  ('CC(=O)O[C@H]1C(=O)[C@@]2(C)[C@H]([C@H](OC(=O)c3ccccc3)[C@]3(O)C[C@H](OC(=O)[C@H](O)[C@@H](NC(=O)c4ccccc4)c4ccccc4)C(C)=C1C3(C)C)[C@]1(OC(C)=O)CO[C@@H]1C[C@@H]2O + CN1CCN(c2cc(C(=O)Nc3cc4cc(-c5cnn(C)c5)ccc4cn3)ccn2)CC1', 18.1),
  ('O=c1[nH]cc(F)c(=O)[nH]1 + CNC(=O)c1ccc(Nc2nc(OC3CCCC3)c3c(-c4ccc5nc(C)oc5c4)c[nH]c3n2)c(OC)c1', 56.4),
  ('O=c1[nH]cc(F)c(=O)[nH]1 + CN1CCN(c2cc(C(=O)Nc3cc4cc(-c5cnn(C)c5)ccc4cn3)ccn2)CC1', 43.7),
  ('CC(Nc1ccc2c(c1)OCCn1cc(N3C(=O)OCC3C(F)F)nc1-2)C(N)=O (stereo unspecified) + CN1CCN(c2cc(C(=O)Nc3cc4cc(-c5cnn(C)c5)ccc4cn3)ccn2)CC1', 20.7),
  ('CC1COCCN1c1cc(C2(S(C)(=N)=O)CC2)nc(-c2ccnc3[nH]ccc23)n1 (stereo unspecified) + CN1CCN(c2cc(C(=O)Nc3cc4cc(-c5cnn(C)c5)ccc4cn3)ccn2)CC1', 42);

###

Entries and their viability, T/C values follow.
- Tested on: 874868-142-R-J2-PDC complex spheroids, growth % test/control
- PROTOCOL_DESCRIPTION: Anticancer human tumor 874868-142-R-J2-PDC cell line growth inhibition [CLK];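 further: spheroids exposed to the compounds for 7 days; 100% = DMSO vehicle control viability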
- TEST_CONTEXT: second compound 0.316 µM; first compound 0.00949 µM; stronger effect = lower value
REPORTED_METRIC: viability, T/C (%)

INSERT INTO measurements (molecule, measured_value) VALUES
  ('CC(C)CC(NC(=O)C(Cc1ccccc1)NC(=O)c1cnccn1)B(O)O (stereo not drawn) + CNC(=O)c1ccc(Nc2nc(OC3CCCC3)c3c(-c4ccc5nc(C)oc5c4)c[nH]c3n2)c(OC)c1', 6.3),
  ('NC(=O)C(=Cn1cnc(-c2cc(C(F)(F)F)cc(C(F)(F)F)c2)n1)c1cncnc1 + CNC(=O)c1ccc(Nc2nc(OC3CCCC3)c3c(-c4ccc5nc(C)oc5c4)c[nH]c3n2)c(OC)c1', 45.8),
  ('NC(=O)C(=Cn1cnc(-c2cc(C(F)(F)F)cc(C(F)(F)F)c2)n1)c1cncnc1 + CN1CCN(c2cc(C(=O)Nc3cc4cc(-c5cnn(C)c5)ccc4cn3)ccn2)CC1', 14);

###

- System: 874868-142-R-J2-PDC complex spheroids, growth % test/control
- PROTOCOL_DESCRIPTION: Anticancer human tumor 874868-142-R-J2-PDC cell line growth inhibition [CLK]; active = viability on the fitted dose curve at most 10% of control; inactive = the rest;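 further: spheroids exposed to the compounds for 7 days; 100% = DMSO vehicle control viability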
- TEST_CONTEXT: second compound 1 µM; first compound 1 µM
Labels: 1 (active), 0 (inactive)

INSERT INTO results (molecule, assigned_category) VALUES
  ('C=CC(=O)N1CCN(c2nc(=O)n(-c3c(C)ccnc3C(C)C)c3nc(-c4c(O)cccc4F)c(F)cc23)C(C)C1 (stereo not drawn) + CN1CCN(c2cc(C(=O)Nc3cc4cc(-c5cnn(C)c5)ccc4cn3)ccn2)CC1', 1),
  ('CCc1c2c(nc3ccc(O)cc13)-c1cc3c(c(=O)n1C2)COC(=O)[C@]3(O)CC + CNC(=O)c1ccc(Nc2nc(OC3CCCC3)c3c(-c4ccc5nc(C)oc5c4)c[nH]c3n2)c(OC)c1', 1),
  ('CCCS(=O)(=O)Nc1ccc(F)c(C(=O)c2c[nH]c3ncc(-c4ccc(Cl)cc4)cc23)c1F + CNC(=O)c1ccc(Nc2nc(OC3CCCC3)c3c(-c4ccc5nc(C)oc5c4)c[nH]c3n2)c(OC)c1', 0);

###

Entries and their viability, T/C values follow.
- Test system: 874868-142-R-J2-PDC complex spheroids, growth % test/control
- PROTOCOL_DESCRIPTION: Anticancer human tumor 874868-142-R-J2-PDC cell line growth inhibition [CLK];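 further: spheroids exposed to the compounds for 7 days; 100% = DMSO vehicle control viability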
- TEST_CONTEXT: second compound 0.316 µM; first compound 10 µM; stronger effect = lower value
REPORTED_METRIC: viability, T/C (%)

INSERT INTO measurements (molecule, measured_value) VALUES
  ('CCCS(=O)(=O)Nc1ccc(F)c(C(=O)c2c[nH]c3ncc(-c4ccc(Cl)cc4)cc23)c1F + CN1CCN(c2cc(C(=O)Nc3cc4cc(-c5cnn(C)c5)ccc4cn3)ccn2)CC1', 17.8),
  ('CC1(C)CCC(CN2CCN(c3ccc(C(=O)NS(=O)(=O)c4ccc(NCC5CCOCC5)c([N+](=O)[O-])c4)c(Oc4cnc5[nH]ccc5c4)c3)CC2)=C(c2ccc(Cl)cc2)C1 + CN1CCN(c2cc(C(=O)Nc3cc4cc(-c5cnn(C)c5)ccc4cn3)ccn2)CC1', 11.3),
  ('COc1ccc([C@@H](O)c2cc(-c3ncnc4cc(N5CCOCC5)ccc34)c(F)cc2Cl)nn1 + CNC(=O)c1ccc(Nc2nc(OC3CCCC3)c3c(-c4ccc5nc(C)oc5c4)c[nH]c3n2)c(OC)c1', 23.4);
